Biological target: human GPRC5D (human, UniProt Q9NZD1 1-345)
Sequence (Q9NZD1 whole entry): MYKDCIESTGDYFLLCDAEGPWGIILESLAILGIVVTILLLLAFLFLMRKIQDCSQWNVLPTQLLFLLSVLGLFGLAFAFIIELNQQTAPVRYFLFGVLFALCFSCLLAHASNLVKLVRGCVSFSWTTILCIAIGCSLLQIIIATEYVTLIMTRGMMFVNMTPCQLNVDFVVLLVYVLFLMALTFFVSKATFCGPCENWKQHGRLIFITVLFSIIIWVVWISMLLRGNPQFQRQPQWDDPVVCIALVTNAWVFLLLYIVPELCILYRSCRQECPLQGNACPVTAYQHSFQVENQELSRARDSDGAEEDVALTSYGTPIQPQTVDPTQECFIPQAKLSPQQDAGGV
Assay: cell-based or functional assay
What CAR-J2 EC50 [ng/mL] (PGLALA-CAR-J activation, L363 target cells) was measured for each of the following?
One number for each entry, in ng/mL.

* P1AE5718 (antibody, V domains shown, Humanized 5E11 IgG; PGLALA Fc implied by the CAR-J assay; also called 5E11_VH1b + 5E11_VL3a) VH: ELQLLESGGGLVQPGGSLRLSCAASGFTFSKYAMAWVRQAPGKGLEWVASISTGGVNTYYRDSVKARFTISRDNAKNTLYLQMNSLRAEDTAVYYCATHTGDYFDYWGQGTMVTVSS VL: DIQMTQSPSSLSASVGDRVTITCRASQSVSISGINLMNWYQQKPGKQPKLLIYHASILASGVPSRFSGSGSGTDFTLTISSLQPEDFATYYCQQTRESPLTFGQGTRLEIK | 105
* P1AE5715 (antibody, V domains shown, Humanized 5E11 IgG; PGLALA Fc implied by the CAR-J assay; also called 5E11_VH1b + 5E11_VL1c) VH: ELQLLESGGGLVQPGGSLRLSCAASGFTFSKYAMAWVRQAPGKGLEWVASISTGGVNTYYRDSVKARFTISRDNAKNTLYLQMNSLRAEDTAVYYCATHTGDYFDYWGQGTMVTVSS VL: DIVMTQSPDSLAVSLGERATINCKSSQSVSISGINLMNWYQQKPGQQPKLLIYHASILASGVPDRFSGSGSGTDFTLTISSLQAEDVAVYYCQQTRESPLTFGQGTRLEIK | 3.6
* 5E11_P1AE5728 (antibody, V domains shown, Humanized 5E11 IgG; PGLALA Fc implied by the CAR-J assay; also called 5E11_VH1d + 5E11_VL2a) VH: ELQLLESGGGLVQPGGSLRLSCAASGFTFSKYAMAWVRQAPGKGLEWVASISTGGVNTYYADSVKGRFTISRDNAKNTLYLQMNSLRAEDTAVYYCATHTGDYFDYWGQGTMVTVSS VL: EIVLTQSPGTLSLSPGERATLSCRASQSVSISGINLMNWYQQKPGQQPRLLIYHASILASGIPDRFSGSGSGTDFTLTISRLEPEDFAVYYCQQTRESPLTFGQGTRLEIK | 5.6
* P1AE5727 (antibody, V domains shown, Humanized 5E11 IgG; PGLALA Fc implied by the CAR-J assay; also called 5E11_VH1d + 5E11_VL1c) VH: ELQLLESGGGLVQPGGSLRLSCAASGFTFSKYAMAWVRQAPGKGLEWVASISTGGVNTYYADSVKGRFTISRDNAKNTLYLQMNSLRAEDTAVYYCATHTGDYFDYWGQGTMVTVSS VL: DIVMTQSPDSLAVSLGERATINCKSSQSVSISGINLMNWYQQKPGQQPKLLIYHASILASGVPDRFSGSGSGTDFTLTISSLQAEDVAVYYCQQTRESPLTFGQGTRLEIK | 6.3

Now consider a different binder.
Looking up P1AE5720 (antibody, V domains shown, Humanized 5E11 IgG; PGLALA Fc implied by the CAR-J assay; also called 5E11_VH1c + 5E11_VL1a) VH: EVQLLESGGGLVQPGGSLRLSCAASGFTFSKYAMAWVRQAPGKGLEWVASISTGGVNTYYADSVKGRFTISRDNSKNTLYLQMNSLRAEDTAVYYCATHTGDYFDYWGQGTMVTVSS VL: DIVMTQSPDSLAVSLGERATINCRASQSVSISGINLMNWYQQKPGQQPKLLIYHASILASGVPDRFSGSGSGTDFTLTISSLQAEDVAVYYCQQTRESPLTFGQGTRLEIK , I found its CAR-J2 EC50 [ng/mL] (PGLALA-CAR-J activation, L363 target cells) recorded as 6.3

Where these numbers come from: patent US20220259318A1
